Test system: HOP-18
protocol: NCI tumour cell line growth inhibition, 48 h
The source made the active and inactive calls. Cut-off read from the data, not from the text of the source: active = GI50 up to about 1.1 µM and inactive = higher.
Outcome codes: active, inactive

{"molecule": "CC(=O)OCCOCNC(=S)N/N=C/c1ccc([N+](=O)[O-])s1", "category_label": "inactive"}
{"molecule": "COc1ccc(/C=c2\\sc3n(c2=O)CCN=3)cc1", "category_label": "inactive"}
{"molecule": "CCCCCCCCCCCCCCCC(=O)N[C@H]1CCc2cc(OC)c(OC)c(OC)c2-c2ccc(SC)c(=O)cc21", "category_label": "active"}
{"molecule": "COC(=O)C12C3C=CC(O3)C1C1C=CC2O1 (stereo unspecified)", "category_label": "inactive"}
{"molecule": "COc1nc2c(nc(N)n2C2OC(CO)C(O)C(O)C2O)c(=O)n1C (stereo unspecified)", "category_label": "inactive"}
{"molecule": "COc1ccc(C(O)c2cc(OC)c(OC)c(OC)c2)cc1 (stereo unspecified)", "category_label": "inactive"}

###

Test system: PC-3
protocol: NCI tumour cell line growth inhibition, 48 h
The source made the active and inactive calls. Cut-off read from the data, not from the text of the source: active = GI50 up to about 1.1 µM and inactive = higher.
Possible outcomes: active, inactive

{"compound": "O=C(Nc1sccc1S(=O)(=O)c1ccc(Cl)cc1)C(F)(F)F", "target_of_assay": "PC-3", "category_label": "inactive"}
{"compound": "CCCCCC(/C=N/NC(N)=S)C(O)(C(F)(F)F)C(F)(F)F (centres undefined)", "target_of_assay": "PC-3", "category_label": "inactive"}
{"compound": "C=CCNC1=C2C[C@@H](C)C[C@@H](OC)[C@H](OC(=O)CCN(C)C)[C@H](C)/C=C(\\C)[C@@H](OC(N)=O)[C@H](OC)/C=C\\C=C(/C)C(=O)NC(=CC1=O)C2=O", "target_of_assay": "PC-3", "category_label": "active"}
{"compound": "C=C(C)[C@@]1(O)O[C@H]2C[C@@]3(C)OC(=CC3=O)/C(C)=C\\[C@@H]3OC(=O)[C@@]1(C)[C@H]32", "target_of_assay": "PC-3", "category_label": "inactive"}

###

System: HT-29
protocol: NCI tumour cell line growth inhibition, 48 h
Activity calls are given as the source filed them. No stated cut-off is given here; in the data, active = GI50 up to about 1.1 µM and inactive = higher.
Below, each entry is listed alongside its reported GI50.
value_kind: GI50

{"compound": "CC(C)c1ccc(/C=C/c2cc(C(=O)NNC(=O)NC3CCCCC3)nc(S)n2)cc1", "observed_measurement": "> 100 µM (inactive)"}
{"compound": "c1ccc(/N=C2\\SC(=NNc3ccccc3)S\\C2=N/c2ccccc2)cc1", "observed_measurement": "45.4 µM (inactive)"}
{"compound": "CCOC(=O)c1cc([N+](=O)[O-])cc([N+](=O)[O-])c1Sc1[nH]cnc2ncnc1-2", "observed_measurement": "2.37 µM (inactive)"}
{"compound": "Nc1nn2c(C(Br)Br)cc(C(Br)Br)nc2c1[N+](=O)[O-]", "observed_measurement": "0.766 µM (active)"}
{"compound": "B.CC(=O)OC1CN2CCC1CC2 (stereo unspecified)", "observed_measurement": "> 100 µM (inactive)"}
{"compound": "COc1ccc2cc1Oc1ccc(cc1)CC1c3cc(OC)c(cc3CCN1C)Oc1c(OC)c(OC)cc3c1C(C2)N(C)CC3 (stereo unspecified)", "observed_measurement": "8.79 µM (inactive)"}
{"compound": "Cn1c(=O)n2n(c1=O)C([S+]([O-])c1ccccc1)C2 (stereo unspecified)", "observed_measurement": "> 100 µM (inactive)"}
{"compound": "O=C1C2=C(C3=NCCc4c[nH]c1c43)c1c(cc(Br)c(O)c1Br)CCN2", "observed_measurement": "6.59 µM (inactive)"}
{"compound": "CCOc1ccc(/C=C2\\NC(=S)N(/C=C3\\C(=O)Oc4ccccc4C3=O)C2=O)cc1", "observed_measurement": "32.5 µM (inactive)"}
{"compound": "Cc1c(OCCCOc2ccc3c(=O)cc(-c4ccccc4)oc3c2C)ccc2c(=O)cc(-c3ccccc3)oc12", "observed_measurement": "> 100 µM (inactive)"}
{"compound": "NNc1nnc(-c2nnc(NN)o2)o1", "observed_measurement": "> 10 µM (inactive)"}
{"compound": "c1ccc2c(c1)SCCCSCCCS2", "observed_measurement": "> 10 µM (inactive)"}
{"compound": "CC(C)CCC[C@@H](C)[C@H]1CC[C@H]2C3=C[C@H](OS(=O)(=O)O)[C@@]4(O)C[C@@H](O)CC[C@]4(C)[C@@]3(O)CC[C@]12C", "observed_measurement": "42 µM (inactive)"}
{"compound": "CN(C)C=C1C(Cl)=C(C=O)CC(C=O)=C1Cl", "observed_measurement": "14 µM (inactive)"}
{"compound": "O=C1NC(N2CCCC(CO)C2)=N/C1=C\\c1cccs1 (stereo unspecified)", "observed_measurement": "> 100 µM (inactive)"}
{"compound": "c1ccc(-c2csc3ncn4cnnc4c23)cc1", "observed_measurement": "> 100 µM (inactive)"}
{"compound": "COC(=O)/C=C/CC(=O)NS(C)(=O)=O", "observed_measurement": "> 10 µM (inactive)"}
{"compound": "O=c1[nH]c(=O)n(C2CC(O)C(CO)O2)c2nc3ccc4cc5ccccc5cc4c3nc12 (stereo unspecified)", "observed_measurement": "> 100 µM (inactive)"}
{"compound": "C/C=C1\\C[C@@H]2C(OC)Nc3cc(O)c(OC)cc3C(=O)N2C1 (stereo partly specified)", "observed_measurement": "< 0.01 µM (active)"}
{"compound": "CCCCCCCCCCCCCCCC(=O)N[C@H]1CCc2cc(OC)c(OC)c(OC)c2-c2ccc(SC)c(=O)cc21", "observed_measurement": "0.253 µM (active)"}
{"compound": "O=C1/C(=C/c2ccc(O)cc2)CCc2ccc([N+](=O)[O-])cc21", "observed_measurement": "> 100 µM (inactive)"}
